Ref: PubChem BioAssay

Test: forskolin-driven CRE-LacZ activity in PC12 – cell-based, CRE-LacZ reporter, forskolin-stimulated, primary screen (AID 1146);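 further: PC12 cells with 6xCRE LacZ reporter stimulated by forskolin 10 µM; beta-galactosidase reporter signal reflecting CREB driven transcription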
Settings: luminescence, 4.5 h, higher = more signal, called active from +8 up or from −8 down

>  <Compound>
O=C1OCCC/C=C\[C@H]2OC34C=CCN(c5ccc6ccccc6c5)C(=O)[C@H]3N(CCCCCO)C(=O)[C@@H]4C12 (some centres not stated)

>  <z-score>
0.106

$$$$
>  <Compound>
C=CC[C@]1(C(=O)NCc2ccccc2)N=C(c2ccc(OCCCO)cc2)O[C@H]1c1ccccc1CN=[N+]=[N-]

>  <z-score>
-0.116

$$$$
>  <Compound>
COCC(=C=CC[C@H](O)c1cccc(OCCO)c1)CCO

>  <z-score>
0.324

$$$$
>  <Compound>
O=C1O[C@@H](c2ccccc2)[C@@H](c2ccccc2)N2[C@@H](c3ccc(OCCO)cc3)[C@]3(C(=O)Nc4ccc(C#CC5=CCCCC5)cc43)[C@@H](C(=O)N3CCCCCCC3)[C@H]12

>  <z-score>
0.509

$$$$
>  <Compound>
CCCCN1CC=CC23O[C@@H]4/C=C\CCCOC(=O)C4[C@H]2C(=O)N(CCCCCO)[C@@H]3C1=O (some centres not stated)

>  <z-score>
-0.391

$$$$
>  <Compound>
COc1ccc([Si](C)(C)[C@H]2[C@H](CCO)O[C@@]3(C(=O)N(Cc4ccccc4)c4ccc(N5CCCCC5=O)cc43)[C@@H]2C)cc1

>  <z-score>
-1.16

$$$$
>  <Compound>
CC(=O)NCCCC[C@@H]1NC(=O)[C@H]2C[C@@H](C(=O)NCCCCCNC(=O)CS)[C@@H](c3ccc(O)cc3)N2C1=O

>  <z-score>
-0.112

$$$$

---

System tested: Homeobox protein Hox-A13 (Mus musculus) (UniProt Q62424)
Sequence (Q62424 whole entry, looked up): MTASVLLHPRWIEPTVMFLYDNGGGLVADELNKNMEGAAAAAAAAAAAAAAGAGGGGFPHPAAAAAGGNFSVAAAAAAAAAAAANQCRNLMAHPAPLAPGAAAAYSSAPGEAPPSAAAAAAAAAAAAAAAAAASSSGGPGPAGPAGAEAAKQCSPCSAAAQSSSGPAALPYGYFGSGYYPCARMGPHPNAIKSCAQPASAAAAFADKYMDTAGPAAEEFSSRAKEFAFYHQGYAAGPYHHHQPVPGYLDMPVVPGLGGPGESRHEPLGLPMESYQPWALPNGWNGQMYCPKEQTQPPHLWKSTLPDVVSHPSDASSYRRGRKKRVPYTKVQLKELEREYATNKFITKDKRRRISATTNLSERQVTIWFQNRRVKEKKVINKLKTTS
Test: disruptors of Hoxa13 oligonucleotide interaction – biochemical, fluorescence polarization, labeled oligonucleotide, primary screen (AID 1185)
Settings: Hoxa13:DNA binding, 15 min, higher = more signal, called active from +8 up or from −8 down

>  <Molecule>
C=CC[C@@]1(C(=O)N2CCCCC2)N=C(c2ccc(OCCCO)cc2)O[C@@H]1c1ccccc1N=[N+]=[N-]

>  <z-score>
-2.64

$$$$
>  <Molecule>
CCCCN1CC=CC23O[C@@H]4/C=C\CCCOC(=O)C4[C@H]2C(=O)N(CCCCCO)[C@@H]3C1=O (stereo not given in full)

>  <z-score>
-4.13

$$$$
>  <Molecule>
NC(=O)NCC#Cc1ccc2c(c1)[C@]1(C(=O)N2)[C@H](C(=O)O)[C@H]2C(=O)O[C@H](c3ccccc3)[C@H](c3ccccc3)N2[C@@H]1c1ccc(O)cc1

>  <z-score>
-5.06

$$$$
>  <Molecule>
O=C1OCCC=C[C@H]2OC34C=CCN(Cn5nnc6ccccc65)C(=O)[C@H]3N(CCO)C(=O)[C@@H]4C12 (stereo not given in full)

>  <z-score>
-2.78

$$$$
>  <Molecule>
CC(C)OC(=O)C=C1C[C@@H](c2cccc(Cl)c2)O[C@@H](c2cccc(Cl)c2)O1

>  <z-score>
-2.09

$$$$
>  <Molecule>
C=C(/C(=C/C[C@H](OC(C)=O)c1ccc(OCCO)cc1)c1cc(C(=O)OC)ccc1OC)C(C)C

>  <z-score>
-3.69

$$$$
>  <Molecule>
COC(=O)[C@H](Cc1ccccc1)N[C@H](/C=C/C1CC1)[C@@H](O)Cc1ccccc1

>  <z-score>
-5.24

$$$$
>  <Molecule>
CC(=O)NCCCC[C@@H]1NC(=O)[C@H]2C[C@@H](C(=O)O)[C@@H](c3ccc(O)cc3)N2C1=O

>  <z-score>
4.77

$$$$
>  <Molecule>
O[C@@H](Cc1ccccc1)[C@@H](/C=C/C1CC1)NCc1cccc(Cl)c1

>  <z-score>
0.306

$$$$
>  <Molecule>
O=C1O[C@@H](c2ccccc2)[C@@H](c2ccccc2)N2[C@@H](c3ccc(OCCO)cc3)[C@]3(C(=O)Nc4ccc(C#CC5=CCCCC5)cc43)[C@@H](C(=O)N3CCCCCCC3)[C@H]12

>  <z-score>
-15.4

$$$$
>  <Molecule>
NCCCCCCNC(=O)[C@H]1C[C@H]2C(=O)N[C@@H](Cc3ccccc3)C(=O)N2[C@H]1c1cccc(OCCO)c1

>  <z-score>
-3.36

$$$$
>  <Molecule>
COc1cc(CO)cc(I)c1O[C@H]1C=C(C(=O)NCCO)C[C@@H](N(C(=O)c2cc3ccccc3oc2=O)C2CCCCCC2)[C@@H]1O

>  <z-score>
-7.6

$$$$
>  <Molecule>
CN1C(=O)C2C=CC(C(O)C=Cc3ccc([N+](=O)[O-])cc3)N(Nc3ccccc3)C2C1=O (stereo not given)

>  <z-score>
-5.37

$$$$
>  <Molecule>
C[C@H]1C2[C@H](Cc3ccccc3)NC(=O)[C@]23C(=O)NCC(=O)N2CCC[C@H]2C(=O)NC/C=C/CCC/C=C/C3[C@@H]2O[C@]12C (stereo not given in full)

>  <z-score>
-3.96

$$$$
>  <Molecule>
COCCOC(=O)N1C(=O)[C@@]2(c3cc(C#CC4(O)CCCCCC4)ccc31)[C@H](C(=O)Nc1nc3ccccc3s1)[C@H]1C(=O)O[C@H](c3ccccc3)[C@H](c3ccccc3)N1[C@@H]2c1ccc(OCCO)cc1

>  <z-score>
0.447

$$$$
